Catalogue of TGI values
# System: U251 CNS
# experimental details: NCI tumour cell line growth inhibition, 48 h

Completed entries (count: 5):
CCCCCCCCCCCNC=O	> 100 µM
CC(C)OP(=O)(OC(C)C)C(C(C)C)N(C)C(N)=NC#N (centres undefined)	> 100 µM
CC(c1ccccc1)n1cncc1C(=O)NN1CCN(C)CC1 (centres undefined)	> 10 µM
Cc1ccc(-n2nncc2[Si](C)(C)C)s1	> 100 µM
O=C1C(Cl)=C(Cl)C(=O)N1c1ccc(Cl)c(Cl)c1Cl	> 100 µM

Pending molecule:
Prompt: Can you share its TGI? I mean this molecule: O=C1C=CC(=O)c2c(O)c(N3CCOCC3)c(Cl)c(O)c21
Response: 2.62 µM

----------
# Tested on: NCI-H226 lung
# experimental details: NCI tumour cell line growth inhibition, 48 h
Reported TGI values follow for various molecules

Prompt: Fill blank: measured TGI of the molecule O=c1cc(-c2ccccc2)[nH]c2c1CCCC2 is ____.
Response: 65.6 µM

Prompt: Follow-up entry: CCOc1ccc2nc3nc(=O)[nH]c(C)c3c(NC(C)(CO)CO)c2c1
Response: > 100 µM

Prompt: One more molecule: Oc1ccc2ccccc2c1OCc1nnc(CCCCCCCCc2nnc(COc3c(O)ccc4ccccc34)n2Nc2ccccc2)n1Nc1ccccc1
Response: > 91.1 µM

Prompt: Also check Cc1nc2ccc(Br)cc2c(=O)n1-c1ccc(N)cc1
Response: > 100 µM

Prompt: Then NC1=NC(SCc2ccccc2CCl)c2ncn(Cc3ccccc3CCl)c2N1 (stereo not drawn) ?
Response: 4.7 µM

Prompt: What do we get for COc1ccc(N2C(=O)[C@@H](N=[N+]=[N-])[C@@H]2[C@H]2COC(C)(C)O2)cc1 ?
Response: > 100 µM

----------
# Tested on: HOP-92 NSCLC
# experimental details: NCI tumour cell line growth inhibition, 48 h
Where a SMILES comes first, the peptide text is derived from it. [ ]: non-standard residue; d: D form. The star is where a group is joined. Phe(4-NO2) = N[CH](Cc1ccc([N+](=O)[O-])cc1)C(=O)O; Boc = CC(C)(C)OC(=O)*
# TGI values compiled below
Express it in µM; write the number only.

Cc1ccc(N=C/C=C(\Nc2ccc(C)cc2)c2ccc3ccccc3c2)cc1	27.6
CN1CCN(CCCOc2ccc3nc(Nc4ccc(F)c(F)c4)ccc3c2)CC1	3.6
CCOC(=O)CCC(NC(=O)C(Cc1ccc([N+](=O)[O-])cc1)NC(=O)OC(C)(C)C)C(=O)NC(CCC(=O)OCC)C(=O)OCC (configuration not stated) (Boc-[Phe(4-NO2)]-Glu(OEt)-Glu(OEt)-OEt; configuration not given here)	34.7
COc1c(OC)c(OC)c2c(=O)cc(-c3ccc(OC(C)C)cc3)oc2c1OC	23.4
C/C(=C\Cc1ccc(F)cc1)CCCCCC/C(C)=C/Cc1ccc(F)cc1	23.5

Prompt: For the compound O=C1N2CCC[C@H]2CS1(=O)=O , what TGI is on record?
Response: 25.7

Prompt: Repeat for the following compound: O=C1NC(=O)C(=Cc2cn(Cc3ccccc3)c3ccccc23)C(=O)N1
Response: 19.9

----------
# Test system: SK-MEL-28 melanoma
# experimental details: NCI tumour cell line growth inhibition, 48 h
value kind: TGI

CCOC(=O)c1cc2c3c(c(C(C)=O)c(OC)c2[nH]1)N(C(=O)CC)CC3	44.7 µM
O=CC(O)C(O)C(O)C(O)COC(=O)NCCCCC(=O)C(F)(F)C(F)(F)C(F)(F)C(F)(F)C(F)(F)C(F)(F)C(F)(F)F (stereo not given)	> 100 µM

Prompt: // returns reported TGI for input CC(C)=Cc1cc(C)c2ccc(C)c3c2c1C(C)=C(O)C3=O
Response: > 100 µM

Prompt: Further, for O=c1[nH]cc(N=Cc2cc(Cl)ccc2O)c(=O)[nH]1 ?
Response: 70.1 µM

Prompt: Now try C=CC1C(CC2OC(CO)C(O)C(O)C2O)OC=C2C(=O)OCCC21O (stereo not given) .
Response: 19.2 µM

----------
# Test system: HOP-62 NSCLC
# experimental details: NCI tumour cell line growth inhibition, 48 h
value kind: TGI (µM)
Write the value in µM as a bare number.

Below: 4 compounds and their reported TGI.
C/C(=C\Cc1ccc(F)cc1)CCCCCC/C(C)=C/Cc1ccc(F)cc1	37.2
Cc1nn(C)c2ncnc(N/N=C/c3cccc(O)c3O)c12	15.1
CCC1=C(C[C@H]2NCCc3cc(OC)c(OC)cc32)C[C@H]2c3cc(OC)c(OC)cc3CCN2C1	0.106
O=C1C=CC(=O)c2c(O)c(N3CCOCC3)c(Cl)c(O)c21	2.36

Next up:
Prompt: State the recorded TGI for this entry: Cc1ccc(N=C/C=C(\Nc2ccc(C)cc2)c2ccc3ccccc3c2)cc1
Response: 5.4

----------
# System: T-47D breast
# experimental details: NCI tumour cell line growth inhibition, 48 h
Entries annotated with measured GI50

Sample answers from the record:
CN1CCN(Cc2ccc(NC(=O)c3[nH]ncc3Nc3ncnc4[nH]ccc34)cc2)CC1	0.365 µM
CN1CCN(C(=O)c2ccc(NC(=O)Nc3ccc(-c4nc(N5CCOCC5)c5cccn5n4)cc3)cc2)CC1	0.0126 µM
COc1cc(S(=O)(=O)Nc2nc(-c3ccc(N4C(=O)C(C)SC4c4ccccc4O)cc3)cs2)ccc1Cl (stereo not given)	28.8 µM
CN(C)CCN1C(=O)c2cccc3c(/C=C/CN4C(=O)c5cccc6cccc(c56)C4=O)ccc(c23)C1=O	> 100 µM

Proceeding to the next compound to report its GI50.
Prompt: Reported GI50 for COc1ccc(Nc2ncnc3ccc(-c4cncc(NS(C)(=O)=O)c4)cc23)cc1Cl : what is it?
Response: 0.177 µM

----------
# Tested on: U251 CNS
# experimental details: NCI tumour cell line growth inhibition, 48 h
Catalogue of molecules with associated TGI

Cc1ccc(N2C(=O)C3CSCN3C2=O)cc1 (stereo unspecified)	> 100 µM
Nc1nc(Cl)nc2c1ncn2C1OC(CO)C(O)C1F (stereo unspecified)	> 100 µM
CCOC(=O)CCc1cn2cc(Br)nc(OC)c2n1	> 100 µM
COC1=C(OC)C(=O)C(C/C=C(\C)CC/C=C(\C)CC/C=C(\C)CC/C=C(\C)CC/C=C(\C)CC/C=C(\C)CC/C=C(\C)CC/C=C(\C)CC/C=C(\C)CCC=C(C)C)=C(C)C1=O	> 100 µM

Prompt: Fill blank: measured TGI of the molecule Cc1cc2c(=O)c3ccc(Cl)cc3[nH]c2c(C(N)=O)c1C is ____.
Response: > 100 µM

Prompt: Follow-up entry: CC(OP(=O)(O)O)C(N)C(=O)O (stereo unspecified)
Response: > 100 µM

Prompt: And for CCC[CH2][Sn]([CH2]CCC)([CH2]CCC)/[C](=C/[Si](C)(C)c1ccccc1)c1ccc2c(c1)OCO2 ?
Response: 40 µM

Prompt: Next molecule up: Cc1cc(S(=O)(=O)Nc2nc3cscc3c(=O)n2N)c(S)cc1Cl
Response: > 100 µM

----------
# Tested on: SF-539 CNS
# experimental details: NCI tumour cell line growth inhibition, 48 h
molecules and their reported TGI
Write the answer as a number in µM, unit excluded.

In the examples that follow, each entry is paired with its recorded TGI.
S=C1C(=Nc2ccccc2)N(c2ccccc2)/C(=N\c2cccc[n+]2Cc2ccccc2)N1c1ccccc1	34
CC1=NN(c2ccccc2)C(=O)C12[C@H](c1ccccc1)C2(C#N)C#N (some centres undefined)	27.7
Clc1ccc(-c2nn3c(COc4cccc(OCc5nnc6sc(-c7ccc(Cl)cc7)nn56)c4)nnc3s2)cc1	49.5

Prompt: Form entry - test system: SF-539 CNS; read-out: TGI; molecule: O=C1c2ccncc2C(=O)c2c(O)ccc(O)c21
Response: 13.4

----------
# System: NCI-H460 lung
# experimental details: NCI tumour cell line growth inhibition, 48 h
value kind: TGI

Example compounds with recorded TGI:
CC1=NN(c2ccccc2)C(=O)C12[C@H](c1ccccc1)C2(C#N)C#N (some centres undefined)	41.5 µM
O=c1c2ccccc2oc2ccccc12 (tested in a mixture with another compound)	25.9 µM
c1cc2cc3c4c5c(cc6ccc7cc8cc9c%10c8c8c7c6c5c8c5c%10c(c1C9N1CCOCCOCCOCCOCCOCC1)c2c45)C3 (centres undefined)	> 100 µM
O=c1[nH]n(CCc2ccccc2CCl)c2ccc([N+](=O)[O-])cc12	> 100 µM
CSc1nnc(SCc2nn3c(=O)cc(C)nc3s2)s1	> 100 µM

Prompt: So what does the record say about TGI for COC1=C(OC)C(=O)C(C/C=C(\C)CC/C=C(\C)CC/C=C(\C)CC/C=C(\C)CC/C=C(\C)CC/C=C(\C)CC/C=C(\C)CC/C=C(\C)CC/C=C(\C)CCC=C(C)C)=C(C)C1=O ?
Response: > 100 µM

Prompt: Proceed to O=C1NC(=O)C(=Cc2cn(Cc3ccccc3)c3ccccc23)C(=O)N1
Response: 13.4 µM

Prompt: What do you have for COc1c(C)c(C/C=C(\C)CCCC(C)CCCC(C)CCCC(C)C)c(OC)c2ccccc12 (centres undefined) ?
Response: > 100 µM

Prompt: Now consider NC(N)=NC(N)=Nc1ccc(C(=O)O)cc1 and answer again.
Response: > 100 µM

Measured values drawn from PubChem BioAssay (NCI) for this set.
